- Assayed System: T1, UCHL3 (UniProt P15374 1-230)
- T1 chain: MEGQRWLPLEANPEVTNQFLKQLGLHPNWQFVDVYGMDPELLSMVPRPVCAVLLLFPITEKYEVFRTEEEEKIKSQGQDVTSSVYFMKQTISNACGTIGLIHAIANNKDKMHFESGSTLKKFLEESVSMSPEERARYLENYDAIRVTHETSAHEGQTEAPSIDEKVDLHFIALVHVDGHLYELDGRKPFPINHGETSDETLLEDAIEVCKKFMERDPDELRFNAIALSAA
- Procedure Summary: ubiquitin-AMC enzyme inhibition
Quantity Measured: pIC50
Please express pIC50 as -log10 of the molar concentration.

// query Name the reported pIC50 value associated with the binder VSRCYIFWNEMFCDVE [peptide USP30-8]
// result 3.71
